test: log P by HPLC on reversed-phase columns (C 18), method [a], acidic range pH 2.3; type: physicochemical; conditions: pH 2.3, log P (pH 2.3)
Value Type: chromatographic logP
Numbers only.

// below: answered compounds
Brc1ccc(Nc2ncc(Br)c(NC3CCC3)n2)cc1 [VII-10]: 3.18
O=C1OCCN1c1cccc(Nc2ncc(Cl)c(NC3CCC3)n2)c1 [Example 59]: 1.64
Clc1cnc(Nc2ccc(I)cc2)nc1NC1CC1: 2.73
Clc1ncc(Cl)c(N2CCSCC2)n1 [Example V-32]: 2.84
Clc1cnc(Nc2ccc(I)cc2)nc1NC1CCC1 [VII-12]: 3.49
CC1CN(c2cccc(N)c2)C(=O)O1 (stereo not drawn): 0.33
COCC(=O)N(c1cccc(N2CCCC2=O)c1)c1ncc(Cl)c(NC2CC2)n1 [Example 231]: 1.87
CC(Nc1nc(Nc2cccc(N3CCCC3=O)c2)ncc1C(F)(F)F)C(F)(F)F (stereo not drawn) [Example 220]: 3.08
Nc1ccc(F)c(N2CCCC2=O)c1: 0.31
O=C1CCCN1c1cccc(Nc2ncc(C(F)(F)F)c(Cl)n2)c1 [VI-1]: 2.98

Parameter requested: chromatographic logP. Apply to each item below.
1. FC(F)(F)CNc1nc(Cl)ncc1Cl [Example V-5]
2. CC(C)OC(=O)N(c1cccc(N2CCCC2=O)c1)c1ncc(Cl)c(NC2CC2)n1 [Example 329]

[2.26, 2.24]

Parameter requested: chromatographic logP. Apply to each item below.
1. Clc1ncc(Cl)c(N2CCOCC2)n1 [Example V-33, 4-(2,5-Dichloropyrimidin-4-yl)morpholine]
2. CN(c1nc(Cl)ncc1Cl)C1CC1 [Example V-26]
3. O=C1CCC(=O)N1c1cc(Nc2ncc(C(F)(F)F)c(NC3CC3)n2)ccc1Cl [Example 119]
4. CC1CCC(=O)N1c1cccc(N)c1 (stereo not drawn)
5. CC1(C)CC(=O)N(c2cccc([N+](=O)[O-])c2)C1=O
6. Clc1ncc(Cl)c(N2CCC2)n1 [Example V-35, 4-(Azetidin-1-yl)-2,5-dichloropyrimidine]

[1.99, 2.82, 2.49, 0.52, 2.01, 2.11]

====

test: log P by LC-MS, method [b], acid range pH 2.7; assay type: physicochemical; conditions: pH 2.7
Value Type: log p

CC(C)Nc1nc(Nc2cccc(N3C(=O)CCC3C)c2)ncc1Cl (stereo not drawn) [Example 144]: 1.66[b]

Parameter requested: log p. Apply to each item below.
1. CC1CC1Nc1nc(Nc2cccc(N3C(=O)OCC3C)c2)ncc1Cl (stereo not drawn) [Example 215]
2. CC1CCC(=O)N1c1cccc(Nc2ncc(Cl)c(N(C)C3CC3)n2)c1 (stereo not drawn) [Example 180]
3. COCC(C)Nc1nc(Nc2cccc(N3C(=O)OC[C@H]3C)c2)ncc1Br (stereo partly drawn) [Example 183]
4. CC(C)Nc1nc(Nc2cccc(N3CCOC3=O)c2)ncc1Br [Example 146]
5. CC1CCC(=O)N1c1cccc(Nc2ncc(Cl)c(NC3CC3)n2)c1 (stereo not drawn) [Example 125]

1. 1.84[b]
2. 2.26[b]
3. 1.71[b]
4. 1.63[b]
5. 2.59[b]

Parameter requested: log p. Apply to each item below.
1. CCC1CC(C)C(=O)N1c1cccc(Nc2ncc(Br)c(NCC3CC3)n2)c1 (stereo not drawn) [Example 209]
2. CN(c1nc(Nc2cccc(N3C(=O)CC(C)(C)C3=O)c2)ncc1Cl)C1CC1 [Example 177]

1. 2.41[b]
2. 2.55[b]

Parameter requested: log p. Apply to each item below.
1. O=C1CCCN1c1cccc(Nc2ncc(Cl)c(NC3CCCC3)n2)c1 [Example 42]
2. O=C1CCC(C(F)(F)F)N1c1cccc(Nc2ncc(C(F)(F)F)c(NC3CC3)n2)c1 (stereo not drawn) [Example 314]
3. CC1COC(=O)N1c1cccc(Nc2ncc(Br)c(NCC(F)F)n2)c1 (stereo not drawn) [Example 163]
4. CC1CCN(c2cccc(Nc3ncc(Cl)c(NC4CCC4)n3)c2)C1=O (stereo not drawn) [Example 113]
5. CC(C)Nc1nc(Nc2cccc(N3CCC(C)C3=O)c2)ncc1Cl (stereo not drawn) [Example 185]
6. CC1CC1Nc1nc(Nc2cccc(N3CCOC3=O)c2)ncc1Br (stereo not drawn) [Example 227]
7. CC1(C)CC(=O)N(c2cccc(Nc3ncc(Cl)c(NC4CCC4)n3)c2)C1=O [Example 29]

["1.92[b]", "2.74[b]", "1.88[b]", "2.01[b]", "1.82[b]", "1.77[b]", "2.07[b]"]

Parameter requested: log p. Apply to each item below.
1. CC1CC(C)N(c2cccc(Nc3ncc(Cl)c(NCC(F)(F)F)n3)c2)C1=O (stereo not drawn) [Example 171]
2. CC1CC(=O)N(c2cccc(Nc3ncc(Br)c(NC4CC4)n3)c2)C1=O (stereo not drawn) [Example 66]
3. O=C1CCCN1c1cccc(Nc2ncc(C(F)(F)F)c(N3CCCCC3)n2)c1 [Example 320]

["2.51[b]", "1.78[b]", "3.29[b]"]

====

test: log P by LC-MS, method [b], acid range pH 2.7; type: physicochemical; conditions: pH 2.7
Task for the reader: assign each of the following molecules its reported log p.

CC1CC1Nc1nc(Nc2cccc(N3C(=O)CC(C)(C)C3=O)c2)ncc1Br (stereo not drawn): 2.2[b]

Parameter requested: log p. Apply to each item below.
1. CC1CC(Nc2nc(Nc3cccc(N4C(=O)CCC4C)c3)ncc2Br)C1 (stereo not drawn)
2. CC1COC(=O)N1c1ccc(Nc2ncc(Cl)c(NCC(F)(F)F)n2)cc1 (stereo not drawn)

1. 2.17[b]
2. 2.06[b]

====

assay: log P by LC-MS, method [b], acid range pH 2.7; format: physicochemical; settings: pH 2.7
Task for the reader: assign each of the following compounds its reported log p.

// below: answered compounds
CN1CCN(c2cccc(Nc3ncc(C(F)(F)F)c(NC4CC4)n3)c2)C1=O [Example 293]: 2.22[b]
CC1CC(=O)N(c2cccc(Nc3ncc(C(F)(F)F)c(NC4CCC4)n3)c2)C1=O (stereo not drawn) [Example 247]: 2.67[b]
COCC(C)Nc1nc(Nc2cccc(N3C(=O)OCC3C)c2)ncc1Cl (stereo not drawn) [Example 118]: 1.6[b]
CC1CCN(c2cccc(Nc3ncc(Br)c(NC4CC4)n3)c2)C1=O (stereo not drawn) [Example 187]: 1.87[b]
CCC1CC(C)C(=O)N1c1cccc(Nc2ncc(Br)c(NC3CCC3)n2)c1 (stereo not drawn) [Example 211]: 2.63[b];

Parameter requested: log p. Apply to each item below.
1. CC1CCC(=O)N1c1cccc(Nc2ncc(Cl)c(NC3CCC3)n2)c1 (stereo not drawn) [Example 37]
2. CC1CN(c2cccc(Nc3ncc(Cl)c(NC4CC4)n3)c2)C(=O)O1 (stereo not drawn) [Example 264]
3. CC(C)[C@H]1COC(=O)N1c1cccc(Nc2ncc(Cl)c(NCC(F)F)n2)c1 [Example 112]
4. O=C1N(CCCl)CCN1c1cccc(Nc2ncc(Cl)c(NC3CC3)n2)c1 [Example 286]

1: 1.83[b]; 2: 1.65[b]; 3: 2.39[b]; 4: 1.82[b]

====

test: log P by LC-MS, method [b], acid range pH 2.7; format: physicochemical; conditions: pH 2.7
Task for the reader: assign each of the following molecules its reported log p.

CC(C)C1COC(=O)N1c1cccc(Nc2ncc(Br)c(NC3CC3)n2)c1 (stereo not drawn): 2.22[b]
CC(C)C1COC(=O)N1c1cccc(Nc2ncc(C(F)(F)F)c(NC3CCC3)n2)c1 (stereo not drawn): 3.47[b]
CC1CCC(=O)N1c1cccc(Nc2ncc(Cl)c(NC3CC3)n2)c1 (stereo not drawn) [Example 30]: 1.6[b]

Parameter requested: log p. Apply to each item below.
1. O=C1OCCN1c1cccc(Nc2ncc(C(F)(F)F)c(NC3CCC3)n2)c1
2. CC1COC(=O)N1c1cccc(Nc2ncc(Cl)c(NC3CC3(C)C)n2)c1 (stereo not drawn)
3. CC1(C)CC(=O)N(c2cccc(Nc3ncc(Cl)c(NCC(F)(F)F)n3)c2)C1=O
4. CC(C)[C@H]1COC(=O)N1c1cccc(Nc2ncc(Cl)c(NCC3CC3)n2)c1

1: 2.58[b]; 2: 2.15[b]; 3: 2.36[b]; 4: 2.17[b]

Parameter requested: log p. Apply to each item below.
1. CC1(C)CC1Nc1nc(Nc2cccc(N3CCCC3=O)c2)ncc1Cl (stereo not drawn)
2. CCN(C)c1nc(Nc2cccc(N3CCCC3=O)c2)ncc1Cl
3. CC(C)Nc1nc(Nc2cccc(N3C(=O)C(C)CC3C)c2)ncc1Cl (stereo not drawn)
4. CC1COC(=O)N1c1cccc(Nc2ncc(Cl)c(NCC(F)(F)F)n2)c1 (stereo not drawn)
5. CC1CC(C)N(c2cccc(Nc3ncc(Br)c(NC4CC4)n3)c2)C1=O (stereo not drawn)
6. Cc1cc(Nc2ncc(C(F)(F)F)c(NC3CC3)n2)cc(N2CCCC2=O)c1
7. O=C1COCCN1c1cccc(Nc2ncc(Cl)c(NCC(F)F)n2)c1
8. C[C@H]1COC(=O)N1c1cccc(Nc2ncc(Cl)c(NC3CCC3)n2)c1

["1.98[b]", "1.79[b]", "1.88[b]", "2.16[b]", "2.01[b]", "2.51[b]", "1.46[b]", "1.82[b]"]

Parameter requested: log p. Apply to each item below.
1. CC1CN(c2cccc(Nc3ncc(Br)c(NC4CCC4)n3)c2)C(=O)O1 (stereo not drawn)
2. COC(=O)N(c1cccc(N2CCCC2=O)c1)c1ncc(Cl)c(NC2CC2)n1
3. CC1CC1Nc1nc(Nc2cccc(N3CCCC3=O)c2)ncc1Cl (stereo not drawn)
4. O=C1CCCN1c1cccc(Nc2ncc(C(F)(F)F)c(NCC(F)F)n2)c1

1: 2.04[b]; 2: 1.77[b]; 3: 1.72[b]; 4: 2.38[b]
